- System: E. coli CVM 40132 (ctx-m-9)
- Type: cell-based, Escherichia coli
Where a SMILES comes first, the peptide text is derived from it. Bridges are numbered along the chain shown (N, C = ends). [ ]: non-standard residue; d: D form. The star is where a group is joined. Pentadecanoyl = CCCCCCCCCCCCCCC(=O)*; Tridecanoyl = CCCCCCCCCCCCC(=O)*; Undecanoyl = CCCCCCCCCCC(=O)*; dOrn = NCCC[C@@H](N)C(=O)O
test-readout: MIC (µg/mL)
Please respond with the number in µg/mL and leave the unit unwritten.

Would you please look over these solved cases?
1. CCCCCCCCCCCCC(=O)N[C@H](CCCN)C(=O)N[C@H](C(=O)N[C@@H]1C(=O)N[C@H](CCCN)C(=O)N[C@@H](CO)C(=O)N[C@@H](Cc2ccc(O)cc2)C(=O)N[C@H](CCCCN)C(=O)N[C@H](CO)C(=O)N[C@@H]([C@@H](C)CC)C(=O)N2CCC[C@H]2C(=O)N[C@@H]([C@@H](C)CC)C(=O)N2CCC[C@H]2C(=O)N[C@@H]([C@@H](C)CC)C(=O)O[C@@H]1C)C(C)C [Compound A D-form] (Tridecanoyl-[dOrn]VT[dOrn]SY[dK][dS]IPIPI; ester 3-C) ... 8
2. CCCCCCCCCCCCCCC(=O)N[C@H](CCCN)C(=O)N[C@H](C(=O)N[C@@H]1C(=O)N[C@H](CCCN)C(=O)N[C@@H](CO)C(=O)N[C@@H](Cc2ccc(O)cc2)C(=O)N[C@H](CCCCN)C(=O)N[C@H](CO)C(=O)N[C@@H]([C@@H](C)CC)C(=O)N2CCC[C@H]2C(=O)N[C@@H]([C@@H](C)CC)C(=O)N2CCC[C@H]2C(=O)N[C@@H]([C@@H](C)CC)C(=O)O[C@@H]1C)C(C)C [Compound B] (Pentadecanoyl-[dOrn]VT[dOrn]SY[dK][dS]IPIPI; ester 3-C; N-terminus assumed) ... 16

Ask: Quick check: MIC of CCCCCCCCCCC(=O)N[C@H](CCCN)C(=O)N[C@H](C(=O)N[C@@H]1C(=O)N[C@H](CCCN)C(=O)N[C@@H](CO)C(=O)N[C@@H](Cc2ccc(O)cc2)C(=O)N[C@H](CCCCN)C(=O)N[C@H](CO)C(=O)N[C@@H]([C@@H](C)CC)C(=O)N2CCC[C@H]2C(=O)N[C@@H]([C@@H](C)CC)C(=O)N2CCC[C@H]2C(=O)N[C@@H]([C@@H](C)CC)C(=O)O[C@@H]1C)C(C)C [Compound C] (Undecanoyl-[dOrn]VT[dOrn]SY[dK][dS]IPIPI; ester 3-C; N-terminus assumed) ?
Reply: 8

Ask: Another compound to look at: CCCCCCCCCCCCC(=O)N[C@H](CCCN)C(=O)N[C@H](C(=O)N[C@@H]1C(=O)N[C@H](CCCN)C(=O)N[C@@H](CO)C(=O)N[C@@H](Cc2ccc(O)cc2)C(=O)N[C@@H](CCCCN)C(=O)N[C@H](CO)C(=O)N[C@@H]([C@@H](C)CC)C(=O)N2CCC[C@H]2C(=O)N[C@@H]([C@@H](C)CC)C(=O)N2CCC[C@H]2C(=O)N[C@@H]([C@@H](C)CC)C(=O)O[C@@H]1C)C(C)C [Compound A L-form] (Tridecanoyl-[dOrn]VT[dOrn]SYK[dS]IPIPI; ester 3-C)
Reply: 8

Ask: And for CCCCCCCCCCCCC(=O)N[C@H](CCCN)C(=O)N[C@H](C(=O)N[C@@H]1C(=O)N[C@H](CCCN)C(=O)N[C@@H](CO)C(=O)N[C@@H](Cc2ccccc2)C(=O)N[C@H](CCCCN)C(=O)N[C@H](CO)C(=O)N[C@@H]([C@@H](C)CC)C(=O)N2CCC[C@H]2C(=O)N[C@@H]([C@@H](C)CC)C(=O)N2CCC[C@H]2C(=O)N[C@@H]([C@@H](C)CC)C(=O)O[C@@H]1C)C(C)C [Variant D] (Tridecanoyl-[dOrn]VT[dOrn]SF[dK][dS]IPIPI; ester 3-C; N-terminus assumed) ?
Reply: 8

* * *

- System: E. faecalis BAA-2365
- method-notes: microbe, parasite or virus in culture
- Assay type: cell-based, Enterococcus faecalis
- test-context: BAA-2365
Where a SMILES comes first, the peptide text is derived from it. Bridges are numbered along the chain shown (N, C = ends). [ ]: non-standard residue; d: D form. The star is where a group is joined. Tridecanoyl = CCCCCCCCCCCCC(=O)*; Undecanoyl = CCCCCCCCCCC(=O)*; dOrn = NCCC[C@@H](N)C(=O)O
test-readout: MIC
Provide a numeric answer, followed by its unit.

1) CCCCCCCCCCC(=O)N[C@H](CCCN)C(=O)N[C@H](C(=O)N[C@@H]1C(=O)N[C@H](CCCN)C(=O)N[C@@H](CO)C(=O)N[C@@H](Cc2ccc(O)cc2)C(=O)N[C@H](CCCCN)C(=O)N[C@H](CO)C(=O)N[C@@H]([C@@H](C)CC)C(=O)N2CCC[C@H]2C(=O)N[C@@H]([C@@H](C)CC)C(=O)N2CCC[C@H]2C(=O)N[C@@H]([C@@H](C)CC)C(=O)O[C@@H]1C)C(C)C [Compound C] (Undecanoyl-[dOrn]VT[dOrn]SY[dK][dS]IPIPI; ester 3-C; N-terminus assumed) ... 32 µg/mL

Let's switch to this compound now.
Ask: So what does the record say about MIC for CCCCCCCCCCCCC(=O)N[C@H](CCCN)C(=O)N[C@H](C(=O)N[C@@H]1C(=O)N[C@H](CCCN)C(=O)N[C@@H](CO)C(=O)N[C@@H](Cc2ccc(O)cc2)C(=O)N[C@@H](CCCCN)C(=O)N[C@H](CO)C(=O)N[C@@H]([C@@H](C)CC)C(=O)N2CCC[C@H]2C(=O)N[C@@H]([C@@H](C)CC)C(=O)N2CCC[C@H]2C(=O)N[C@@H]([C@@H](C)CC)C(=O)O[C@@H]1C)C(C)C [Compound A L-form] (Tridecanoyl-[dOrn]VT[dOrn]SYK[dS]IPIPI; ester 3-C) ?
Reply: 8 µg/mL

* * *

Item-by-item account of MIC
- Test system: E. coli CVM 40128 (oxa-7)
- Assay type: cell-based, Escherichia coli
Where a SMILES comes first, the peptide text is derived from it. Bridges are numbered along the chain shown (N, C = ends). [ ]: non-standard residue; d: D form. The star is where a group is joined. Tridecanoyl = CCCCCCCCCCCCC(=O)*; dOrn = NCCC[C@@H](N)C(=O)O
Please give a number only; it is taken to be in µg/mL.

Some molecules with recorded MIC:
1. CCCCCCCCCCCCC(=O)N[C@H](CCCN)C(=O)N[C@H](C(=O)N[C@@H]1C(=O)N[C@H](CCCN)C(=O)N[C@@H](CO)C(=O)N[C@@H](Cc2ccccc2)C(=O)N[C@H](CCCCN)C(=O)N[C@H](CO)C(=O)N[C@@H]([C@@H](C)CC)C(=O)N2CCC[C@H]2C(=O)N[C@@H]([C@@H](C)CC)C(=O)N2CCC[C@H]2C(=O)N[C@@H]([C@@H](C)CC)C(=O)O[C@@H]1C)C(C)C [Variant D] (Tridecanoyl-[dOrn]VT[dOrn]SF[dK][dS]IPIPI; ester 3-C; N-terminus assumed) ... 8
2. CCCCCCCCCCCCC(=O)N[C@H](CCCN)C(=O)N[C@H](C(=O)N[C@@H]1C(=O)N[C@H](CCCN)C(=O)N[C@@H](CO)C(=O)N[C@@H](Cc2ccc(O)cc2)C(=O)N[C@H](CCCCN)C(=O)N[C@H](CO)C(=O)N[C@@H]([C@@H](C)CC)C(=O)N2CCC[C@H]2C(=O)N[C@@H]([C@@H](C)CC)C(=O)N2CCC[C@H]2C(=O)N[C@@H]([C@@H](C)CC)C(=O)O[C@@H]1C)C(C)C [Compound A D-form] (Tridecanoyl-[dOrn]VT[dOrn]SY[dK][dS]IPIPI; ester 3-C) ... 8

We next turn to a different molecule, shown below.
Ask: I'd like to know its MIC. The molecule in question is CCCCCCCCCCCCC(=O)N[C@H](CCCN)C(=O)N[C@H](C(=O)N[C@@H]1C(=O)N[C@H](CCCN)C(=O)N[C@@H](CO)C(=O)N[C@@H](Cc2ccc(O)cc2)C(=O)N[C@@H](CCCCN)C(=O)N[C@H](CO)C(=O)N[C@@H]([C@@H](C)CC)C(=O)N2CCC[C@H]2C(=O)N[C@@H]([C@@H](C)CC)C(=O)N2CCC[C@H]2C(=O)N[C@@H]([C@@H](C)CC)C(=O)O[C@@H]1C)C(C)C [Compound A L-form] (Tridecanoyl-[dOrn]VT[dOrn]SYK[dS]IPIPI; ester 3-C)
Reply: 8

* * *

- System: S. aureus 8
- method-notes: microbe, parasite or virus in culture
- Format: cell-based, Staphylococcus aureus
- test-context: 8
Where a SMILES comes first, the peptide text is derived from it. Bridges are numbered along the chain shown (N, C = ends). [ ]: non-standard residue; d: D form. The star is where a group is joined. Pentadecanoyl = CCCCCCCCCCCCCCC(=O)*; Tridecanoyl = CCCCCCCCCCCCC(=O)*; Undecanoyl = CCCCCCCCCCC(=O)*; dOrn = NCCC[C@@H](N)C(=O)O
MIC values, listed per item
Report the value in µg/mL with no unit label.

// solved cases for MIC follow
1. CCCCCCCCCCCCC(=O)N[C@H](CCCN)C(=O)N[C@H](C(=O)N[C@@H]1C(=O)N[C@H](CCCN)C(=O)N[C@@H](CO)C(=O)N[C@@H](Cc2ccc(O)cc2)C(=O)N[C@H](CCCCN)C(=O)N[C@H](CO)C(=O)N[C@@H]([C@@H](C)CC)C(=O)N2CCC[C@H]2C(=O)N[C@@H]([C@@H](C)CC)C(=O)N2CCC[C@H]2C(=O)N[C@@H]([C@@H](C)CC)C(=O)O[C@@H]1C)C(C)C [Compound A D-form] (Tridecanoyl-[dOrn]VT[dOrn]SY[dK][dS]IPIPI; ester 3-C) ... 4
2. CCCCCCCCCCCCCCC(=O)N[C@H](CCCN)C(=O)N[C@H](C(=O)N[C@@H]1C(=O)N[C@H](CCCN)C(=O)N[C@@H](CO)C(=O)N[C@@H](Cc2ccc(O)cc2)C(=O)N[C@H](CCCCN)C(=O)N[C@H](CO)C(=O)N[C@@H]([C@@H](C)CC)C(=O)N2CCC[C@H]2C(=O)N[C@@H]([C@@H](C)CC)C(=O)N2CCC[C@H]2C(=O)N[C@@H]([C@@H](C)CC)C(=O)O[C@@H]1C)C(C)C [Compound B] (Pentadecanoyl-[dOrn]VT[dOrn]SY[dK][dS]IPIPI; ester 3-C; N-terminus assumed) ... 4
3. CCCCCCCCCCC(=O)N[C@H](CCCN)C(=O)N[C@H](C(=O)N[C@@H]1C(=O)N[C@H](CCCN)C(=O)N[C@@H](CO)C(=O)N[C@@H](Cc2ccc(O)cc2)C(=O)N[C@H](CCCCN)C(=O)N[C@H](CO)C(=O)N[C@@H]([C@@H](C)CC)C(=O)N2CCC[C@H]2C(=O)N[C@@H]([C@@H](C)CC)C(=O)N2CCC[C@H]2C(=O)N[C@@H]([C@@H](C)CC)C(=O)O[C@@H]1C)C(C)C [Compound C] (Undecanoyl-[dOrn]VT[dOrn]SY[dK][dS]IPIPI; ester 3-C; N-terminus assumed) ... 8

Ask: Please give the measured MIC for this compound: CCCCCCCCCCCCC(=O)N[C@H](CCCN)C(=O)N[C@H](C(=O)N[C@@H]1C(=O)N[C@H](CCCN)C(=O)N[C@@H](CO)C(=O)N[C@@H](Cc2ccccc2)C(=O)N[C@H](CCCCN)C(=O)N[C@H](CO)C(=O)N[C@@H]([C@@H](C)CC)C(=O)N2CCC[C@H]2C(=O)N[C@@H]([C@@H](C)CC)C(=O)N2CCC[C@H]2C(=O)N[C@@H]([C@@H](C)CC)C(=O)O[C@@H]1C)C(C)C [Variant D] (Tridecanoyl-[dOrn]VT[dOrn]SF[dK][dS]IPIPI; ester 3-C; N-terminus assumed)
Reply: 8
